assay summary: pharmacokinetic study of oral rhein, blood level
Type: in vivo, human (volunteers)
run conditions: human, blood, po; 24th hour, volunteers; single dose of 200 mg
parameter measured: concentration at 24 h

Query: Which concentration at 24 h value is on record for O=C(O)c1cc(O)c2c(c1)C(=O)c1cccc(O)c1C2=O [rhein] ?
Result: 200 to 500 ng/mL

These data points were gathered from patent US6197818A.
